- ASSAYED_SYSTEM: Phospholipid hydroperoxide glutathione peroxidase GPX4 (Homo sapiens)
- TEST: Primary qHTS Assay for Inhibitors of Recombinant Selenoprotein Glutathione Peroxidase 4 (GPX4) (AID 1845192); also: % is scaled to controls: 0 for no effect and ±100 for the full control effect; nearly all actives have a fitted effect of over 65% in size
- SETUP_CONDITIONS: recombinant GPX4, GR-coupled NADPH fluorescence, 15 min; series mostly up to 50 µM
Records with an inconclusive call do not appear. The source made the active and inactive calls. Calls follow the shape of the dose curve; as a rule, active = well fitted inhibition curve with a large enough effect; inconclusive = small, poorly fitted or top-dose-only effect; inactive = flat fitted curve, though single readings scatter.
Consider the following compounds; for each one, report its activity change, negative = inhibition.

## Task For the record CC1OC(OC2C(O)COC(O[C@@H]3[C@@H](O)[C@@H](O)[C@H](OC4C(OC(=O)[C@]56CCC(C)(C)CC5C5=CCC7[C@@]8(C)C[C@H](O)[C@H](OC9OC(CO)C(O)C(O)C9O)[C@@](C)(CO)C8[C@H](O)C[C@@]7(C)[C@]5(C)CC6)OCC(O)C4O)O[C@H]3C)C2O)C(O)C(O)C1O (stereo partly drawn) , what value of activity change, negative = inhibition is listed for Phospholipid hydroperoxide glutathione peroxidase GPX4 (Homo sapiens)?
## Result -9.45% [at 9.73 µM] (inactive)

## Task Which measured activity change, negative = inhibition belongs to CNC1CN(c2ccc3c(=O)c(C(=O)O)cn(-c4nccs4)c3n2)CC1OC (stereo not drawn) , tested on Phospholipid hydroperoxide glutathione peroxidase GPX4 (Homo sapiens)?
## Result -2.33% [at 9.73 µM] (inactive)

## Task Enter reported activity change, negative = inhibition observed with Phospholipid hydroperoxide glutathione peroxidase GPX4 (Homo sapiens) for CCCCCCCCCCCCCCCCCC(=O)[O][Al]
## Result -12.8% [at 4.52 µM] (inactive)

Source of measurements: PubChem BioAssay (NCATS)
